# Assay explanation: Pharmacokinetics of Compound 1 solid forms in plasma following single PO administration (IV bolus reference) in male Sprague Dawley rats
# Format: in vivo
# Condition notes: male, Sprague-Dawley, rat, plasma, iv, 1 mg/kg, IV bolus 1 mg/kg, male Sprague-Dawley rats, historical data
# Procedure: Study Design. […] Sample Preparation and Analysis. The concentration of Compound 1 in the plasma samples was determined by LC-MS/MS analysis. […] Results. […] The absolute bioavailability of each form of Compound 1 was determined by dividing the AUCinf of the form in question by the AUCinf obtained by IV administration of Compound 1 and correcting for differences in dose. […]
Quantity: AUC(0-inf)

I have this compound here, C[C@@H](Nc1nc(N[C@H](C)C(F)(F)F)nc(-c2cccc(Cl)n2)n1)C(F)(F)F , and I need its recorded AUC(0-inf). 4800 ng·h/mL
